Biological target: T1, Human OSM (human, UniProt P13725 26-221)
T1 construct: Recombinant human OSM; also called hOSM; human Oncostatin M
T1 sequence: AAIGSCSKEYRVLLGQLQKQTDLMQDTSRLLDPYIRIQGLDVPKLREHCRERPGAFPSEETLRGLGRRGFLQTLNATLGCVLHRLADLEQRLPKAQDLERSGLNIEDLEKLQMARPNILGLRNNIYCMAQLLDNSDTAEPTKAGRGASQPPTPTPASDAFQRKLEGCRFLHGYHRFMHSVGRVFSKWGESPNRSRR
Test: SPR (ProteOn XPR36 or Biacore T100), captured supernatant, OSM as analyte
pKd: −log10 of the molar value.
measured_metric: pKd

binder	quantitative_result
Pos 102 Gln (antibody, V domains shown, also called CDRH3 V102>Q) VH: EVQLVESGGGLVQPGGSLRLSCAASGFTFSSYAMSWVRQAPGKGLEWVATISDGGSFTYYLDNVRGRFTISRDNAKNSLYLQMNSLRAEDTAVYYCARDVGHTTFWYFDQWGRGTLVTVSS VL: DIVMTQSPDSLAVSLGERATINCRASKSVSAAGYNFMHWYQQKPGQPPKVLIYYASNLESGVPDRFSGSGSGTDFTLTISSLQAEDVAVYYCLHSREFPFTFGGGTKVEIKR	9.47
Pos 95 His (antibody, V domains shown, also called CDRH3 D95>H) VH: EVQLVESGGGLVQPGGSLRLSCAASGFTFSSYAMSWVRQAPGKGLEWVATISDGGSFTYYLDNVRGRFTISRDNAKNSLYLQMNSLRAEDTAVYYCARHVGHTTFWYFDVWGRGTLVTVSS VL: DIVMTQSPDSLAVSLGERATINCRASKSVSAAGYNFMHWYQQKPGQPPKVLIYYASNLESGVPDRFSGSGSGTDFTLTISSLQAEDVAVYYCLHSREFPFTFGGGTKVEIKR	9.30
Pos 97 Met (antibody, V domains shown, also called CDRH3 G97>M) VH: EVQLVESGGGLVQPGGSLRLSCAASGFTFSSYAMSWVRQAPGKGLEWVATISDGGSFTYYLDNVRGRFTISRDNAKNSLYLQMNSLRAEDTAVYYCARDVMHTTFWYFDVWGRGTLVTVSS VL: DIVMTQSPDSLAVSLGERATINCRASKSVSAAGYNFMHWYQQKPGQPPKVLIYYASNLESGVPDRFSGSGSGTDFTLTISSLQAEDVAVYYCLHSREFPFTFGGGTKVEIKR	9.09
Pos 96 Gly (antibody, V domains shown, also called CDRH3 V96>G) VH: EVQLVESGGGLVQPGGSLRLSCAASGFTFSSYAMSWVRQAPGKGLEWVATISDGGSFTYYLDNVRGRFTISRDNAKNSLYLQMNSLRAEDTAVYYCARDGGHTTFWYFDVWGRGTLVTVSS VL: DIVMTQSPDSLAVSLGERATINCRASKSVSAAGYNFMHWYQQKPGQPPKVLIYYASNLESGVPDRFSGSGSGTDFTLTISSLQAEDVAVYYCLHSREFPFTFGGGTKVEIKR	9.31
Pos 95 Ala (antibody, V domains shown, the same holds for f2 to f171; also called CDRH3 D95>A) VH: EVQLVESGGGLVQPGGSLRLSCAASGFTFSSYAMSWVRQAPGKGLEWVATISDGGSFTYYLDNVRGRFTISRDNAKNSLYLQMNSLRAEDTAVYYCARAVGHTTFWYFDVWGRGTLVTVSS VL: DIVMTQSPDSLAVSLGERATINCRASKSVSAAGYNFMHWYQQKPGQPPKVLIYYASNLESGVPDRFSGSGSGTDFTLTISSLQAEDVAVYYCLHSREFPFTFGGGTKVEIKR	9.24
